Data origin, for the record: ChEMBL document CHEMBL4400556

tested.system: 85/88 kDa calcium-independent phospholipase A2 (Homo sapiens) (UniProt O60733)
Sequence (O60733 whole entry): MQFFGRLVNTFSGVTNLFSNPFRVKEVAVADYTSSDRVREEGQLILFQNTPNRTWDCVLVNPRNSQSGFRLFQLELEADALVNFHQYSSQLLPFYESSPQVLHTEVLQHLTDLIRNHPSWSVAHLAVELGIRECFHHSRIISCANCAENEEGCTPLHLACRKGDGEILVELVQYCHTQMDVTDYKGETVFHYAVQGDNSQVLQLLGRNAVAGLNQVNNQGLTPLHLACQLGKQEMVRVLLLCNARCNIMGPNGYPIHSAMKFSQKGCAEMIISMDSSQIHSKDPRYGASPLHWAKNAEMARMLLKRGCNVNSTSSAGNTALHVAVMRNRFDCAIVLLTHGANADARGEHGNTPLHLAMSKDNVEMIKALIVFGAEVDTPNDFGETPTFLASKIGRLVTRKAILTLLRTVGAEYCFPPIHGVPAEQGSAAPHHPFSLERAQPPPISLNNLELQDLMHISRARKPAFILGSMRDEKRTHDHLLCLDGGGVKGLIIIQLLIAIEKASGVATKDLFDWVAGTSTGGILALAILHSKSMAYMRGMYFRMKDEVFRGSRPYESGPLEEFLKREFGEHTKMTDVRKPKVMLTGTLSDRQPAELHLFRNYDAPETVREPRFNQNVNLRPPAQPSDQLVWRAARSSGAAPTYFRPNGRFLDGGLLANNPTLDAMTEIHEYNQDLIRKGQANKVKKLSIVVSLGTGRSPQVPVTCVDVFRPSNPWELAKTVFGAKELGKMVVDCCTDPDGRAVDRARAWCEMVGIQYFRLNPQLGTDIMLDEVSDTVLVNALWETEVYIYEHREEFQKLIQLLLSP
assay.notes: Inhibition of human recombinant G6A iPLA2 at 0.091 mole fraction using arachidonyl-1-14C PAPC and PAPC incubated for 30 mins by HPLC-MS analysis based radioactivity-based group specific mixed micelle assay relative to control
Measured inhibition of individual entries
Use % as the unit, but write only the number.

CCC[C@H]1OC(=O)[C@@H]1CCCCc1ccc2ccccc2c1 (racemic); 99
CCCC1OC(=O)C1CCCc1ccc2ccccc2c1 (stereo unspecified); 98
CCC[C@@H]1OC(=O)[C@@H]1CCCc1ccccc1 (racemic); 92
CCCC1OC(=O)C1CCCc1ccc(OC)cc1 (stereo unspecified); 96
CCC1OC(=O)C1CCCc1ccc2ccccc2c1 (stereo unspecified); 93

[in] # query: inhibition of entry CCCC1OC(=O)C1CCCc1ccccc1 (stereo unspecified)
[out] 96

[in] Which measured inhibition value corresponds to CC(C)C1OC(=O)C1CCCc1ccccc1 (stereo unspecified) ?
[out] 93

[in] Which inhibition reading was recorded for the compound CCCCCCC1OC(=O)C1CCCc1ccc(-c2ccccc2)cc1 (stereo unspecified) ?
[out] 78

[in] Query (compound): CCCCCCC1OC(=O)C1CCCc1ccc2ccccc2c1 (stereo unspecified) ; field requested: inhibition
[out] 59

[in] Give its inhibition value. Item: CCC[C@@H]1OC(=O)[C@@H]1CCCCc1ccc2ccccc2c1 (racemic)
[out] 95

[in] For the compound shown here, CCCC1OC(=O)C1CCCCc1ccc2ccccc2c1 (stereo unspecified) , give the reported inhibition.
[out] 97

[in] Name the recorded inhibition for CCC[C@H]1OC(=O)[C@@H]1CCCc1ccc(OC)cc1 (racemic) .
[out] 99

[in] Quick one: inhibition for CC1OC(=O)C1CCCc1ccc2ccccc2c1 (stereo unspecified) ?
[out] 89

[in] I am curious: what inhibition value has been reported for CCC[C@H]1OC(=O)[C@@H]1CCCc1ccccc1 (racemic) ?
[out] 99

[in] Which value of inhibition has been reported for CCC[C@@H]1OC(=O)[C@@H]1CCCCc1ccccc1 (racemic) in the records?
[out] 99
